Entry source: patent US20100260765A1

Target: KDR (human, UniProt P35968 20-1356)
Sequence (P35968 20-1356): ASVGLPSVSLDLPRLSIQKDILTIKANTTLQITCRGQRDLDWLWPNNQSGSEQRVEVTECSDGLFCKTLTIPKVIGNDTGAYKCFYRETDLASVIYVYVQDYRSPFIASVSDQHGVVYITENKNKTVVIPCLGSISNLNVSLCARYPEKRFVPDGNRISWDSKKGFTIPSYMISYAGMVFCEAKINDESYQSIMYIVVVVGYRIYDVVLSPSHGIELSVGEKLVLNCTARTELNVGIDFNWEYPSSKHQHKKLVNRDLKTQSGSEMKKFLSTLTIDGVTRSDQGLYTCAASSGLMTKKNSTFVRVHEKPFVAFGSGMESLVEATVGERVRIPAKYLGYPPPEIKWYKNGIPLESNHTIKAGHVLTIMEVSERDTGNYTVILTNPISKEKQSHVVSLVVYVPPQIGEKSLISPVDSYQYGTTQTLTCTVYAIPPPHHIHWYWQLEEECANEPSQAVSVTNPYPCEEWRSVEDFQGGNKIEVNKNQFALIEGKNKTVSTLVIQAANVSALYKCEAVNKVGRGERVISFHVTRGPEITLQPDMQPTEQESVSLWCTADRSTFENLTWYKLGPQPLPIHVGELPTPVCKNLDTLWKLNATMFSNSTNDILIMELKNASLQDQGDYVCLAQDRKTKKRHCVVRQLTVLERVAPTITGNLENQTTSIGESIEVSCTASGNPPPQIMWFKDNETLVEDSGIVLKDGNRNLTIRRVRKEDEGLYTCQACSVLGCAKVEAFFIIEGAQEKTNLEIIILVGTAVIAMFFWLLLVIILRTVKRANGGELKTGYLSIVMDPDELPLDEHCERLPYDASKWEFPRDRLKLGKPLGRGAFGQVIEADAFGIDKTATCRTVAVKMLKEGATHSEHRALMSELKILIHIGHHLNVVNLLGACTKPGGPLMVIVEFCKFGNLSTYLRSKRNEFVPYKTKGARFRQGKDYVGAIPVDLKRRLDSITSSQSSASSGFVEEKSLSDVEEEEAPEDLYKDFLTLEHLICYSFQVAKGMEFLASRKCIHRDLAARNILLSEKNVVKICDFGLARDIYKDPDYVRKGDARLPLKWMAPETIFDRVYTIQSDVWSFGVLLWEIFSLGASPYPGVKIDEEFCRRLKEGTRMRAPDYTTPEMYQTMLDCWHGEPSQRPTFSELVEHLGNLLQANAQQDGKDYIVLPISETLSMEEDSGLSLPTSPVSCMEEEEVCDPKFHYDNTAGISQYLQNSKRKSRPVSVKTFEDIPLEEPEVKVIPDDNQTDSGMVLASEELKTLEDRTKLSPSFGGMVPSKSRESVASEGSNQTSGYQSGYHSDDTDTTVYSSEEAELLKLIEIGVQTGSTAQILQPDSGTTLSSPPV
Assay: cell-based or functional assay
Each item that follows carries a reported Activity at 133 nM (% Inhibition), 1-hour Pre-incubation at 4° C., N = 2.
Supply the numeric figure in %, leaving out any unit text.

binder="21H9 (antibody, V domains shown) VH: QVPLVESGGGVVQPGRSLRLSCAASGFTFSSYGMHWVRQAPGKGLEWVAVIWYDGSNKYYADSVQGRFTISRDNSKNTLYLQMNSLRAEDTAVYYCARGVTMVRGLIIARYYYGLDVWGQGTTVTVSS VL: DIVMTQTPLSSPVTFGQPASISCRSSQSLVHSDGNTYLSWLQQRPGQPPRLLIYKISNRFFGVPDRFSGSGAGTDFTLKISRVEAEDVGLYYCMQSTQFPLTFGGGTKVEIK" reported_measurement=31

Req: Return value of Activity at 133 nM (% Inhibition), 1-hour Pre-incubation at 4° C., N = 2 for input 21H6 (antibody, V domains shown) VH: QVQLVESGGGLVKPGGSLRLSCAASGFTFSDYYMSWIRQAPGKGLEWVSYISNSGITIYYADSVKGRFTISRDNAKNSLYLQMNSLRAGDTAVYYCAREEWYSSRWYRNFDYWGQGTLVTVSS VL: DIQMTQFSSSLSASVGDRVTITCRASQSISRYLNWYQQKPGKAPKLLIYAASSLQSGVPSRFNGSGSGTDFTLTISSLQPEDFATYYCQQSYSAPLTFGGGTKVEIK , no commentary.
Resp: 75
